Target: Olfr749 (Mus musculus, UniProt E9Q438)
Construct: Flag; Rho tag; expressed in transfected cells
Sequence (E9Q438 1-313): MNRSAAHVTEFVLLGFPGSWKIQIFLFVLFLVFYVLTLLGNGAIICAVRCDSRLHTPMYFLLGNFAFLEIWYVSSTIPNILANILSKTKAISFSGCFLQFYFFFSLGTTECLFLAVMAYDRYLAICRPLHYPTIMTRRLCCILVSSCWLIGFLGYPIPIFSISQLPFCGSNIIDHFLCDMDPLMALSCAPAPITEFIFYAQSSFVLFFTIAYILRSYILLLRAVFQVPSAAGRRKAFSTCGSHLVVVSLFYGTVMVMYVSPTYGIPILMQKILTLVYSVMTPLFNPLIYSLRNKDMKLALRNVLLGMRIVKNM
Assay: Indole antagonist dose-response, cAMP HTRF in HEK293T, vs indole EC80
Assay type: cell-based
Conditions: Table 23
Task for the reader: assign each of the following compounds its reported Olfr749 % Inhibition.
Give bare numbers, in %.

Examples with answers:
{"columns": ["compound", "reported_property", "assay_result"],
 "data": [
  ["c1nc2c(o1)CCCCCCCCCC2", "Olfr749 % Inhibition", 57.85],
  ["C/C=C/C(=O)C1C(C)=CCCC1(C)C (racemic)", "Olfr749 % Inhibition", 47.86],
  ["CC1(C)CCC[C@]2(C)CC(=O)CC[C@@H]12 (racemic)", "Olfr749 % Inhibition", 96.98]
]}

Now for another entry.
Value wanted: Olfr749 % Inhibition (Olfr749 (Mus musculus, UniProt E9Q438)) of entry `C=C1CC[C@H]2O[C@]2(C)CC[C@@H]2[C@@H]1CC2(C)C` 91.71
